target: ΔF508-CFTR (Homo sapiens, UniProt P13569, DEL508-508); construct: host or cells: CFBE41o-, doxycycline-inducible; experiment: CFTR cell surface levels using HRP-tagged ΔF508-CFTR expressing CFBE cells, in the presence of a co-corrector; format: cell-based; settings: HRP-tagged ΔF508-CFTR CFBE cells, in the presence of 3 μM co-corrector; read-out: EC50
Sequence (P13569 with tags, fused parts or gaps DEL508-508): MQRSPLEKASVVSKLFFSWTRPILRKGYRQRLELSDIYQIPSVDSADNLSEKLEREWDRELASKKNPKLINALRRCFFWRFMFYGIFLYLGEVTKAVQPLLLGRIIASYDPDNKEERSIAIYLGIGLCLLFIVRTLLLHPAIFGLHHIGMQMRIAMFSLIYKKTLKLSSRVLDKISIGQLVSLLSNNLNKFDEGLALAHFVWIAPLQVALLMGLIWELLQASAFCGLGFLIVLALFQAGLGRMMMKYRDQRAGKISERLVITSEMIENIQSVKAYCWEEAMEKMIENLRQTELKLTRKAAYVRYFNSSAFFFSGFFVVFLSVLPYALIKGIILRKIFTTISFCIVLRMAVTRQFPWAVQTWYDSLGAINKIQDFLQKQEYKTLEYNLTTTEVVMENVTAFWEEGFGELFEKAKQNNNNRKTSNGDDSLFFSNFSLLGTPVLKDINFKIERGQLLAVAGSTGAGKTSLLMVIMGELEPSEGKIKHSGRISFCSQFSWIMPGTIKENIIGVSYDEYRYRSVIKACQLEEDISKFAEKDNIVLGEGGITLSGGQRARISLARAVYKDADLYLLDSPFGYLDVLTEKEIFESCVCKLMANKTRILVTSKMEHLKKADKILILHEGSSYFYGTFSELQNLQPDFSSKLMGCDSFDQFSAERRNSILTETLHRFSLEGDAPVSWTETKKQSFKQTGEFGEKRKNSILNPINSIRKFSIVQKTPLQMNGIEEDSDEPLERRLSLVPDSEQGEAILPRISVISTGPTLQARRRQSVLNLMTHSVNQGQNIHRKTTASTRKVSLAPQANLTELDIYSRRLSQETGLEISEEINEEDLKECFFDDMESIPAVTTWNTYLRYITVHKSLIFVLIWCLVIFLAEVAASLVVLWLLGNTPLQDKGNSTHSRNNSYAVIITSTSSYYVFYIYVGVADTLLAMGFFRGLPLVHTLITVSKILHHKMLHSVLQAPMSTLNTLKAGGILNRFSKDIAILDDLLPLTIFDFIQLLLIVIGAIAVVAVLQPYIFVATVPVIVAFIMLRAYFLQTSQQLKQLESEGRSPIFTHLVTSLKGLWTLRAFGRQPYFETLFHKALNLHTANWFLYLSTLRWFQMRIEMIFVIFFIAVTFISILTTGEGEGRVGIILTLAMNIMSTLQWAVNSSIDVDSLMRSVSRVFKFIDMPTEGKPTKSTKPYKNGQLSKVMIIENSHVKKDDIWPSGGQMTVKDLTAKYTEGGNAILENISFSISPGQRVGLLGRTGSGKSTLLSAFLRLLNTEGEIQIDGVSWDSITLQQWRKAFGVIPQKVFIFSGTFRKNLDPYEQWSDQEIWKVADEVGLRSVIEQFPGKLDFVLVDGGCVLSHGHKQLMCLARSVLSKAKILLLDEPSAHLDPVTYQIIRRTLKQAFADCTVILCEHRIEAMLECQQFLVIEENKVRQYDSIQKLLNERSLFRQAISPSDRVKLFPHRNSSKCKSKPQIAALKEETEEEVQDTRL
Threshold check on EC50: strictly below 200 nM is True; on or above 200 nM is False.

The examples below pair each entry with its known result.
O=C(NS(=O)(=O)C1CCOC1)c1cc(N2CCC(N3CCCCC3)CC2)c2c(C3CCC3)nn(-c3ccc(F)cc3)c2n1 (stereo not shown) : False
CC(C)c1nn(-c2ccnc(N3CCCC3)c2)c2nc(C(=O)NS(C)(=O)=O)cc(-c3ccc(N4CCC(C#N)CC4)cc3)c12 : False
CC(C)c1nn(-c2cccc(N(C)C)c2)c2nc(C(=O)NS(C)(=O)=O)cc(OCC3CCOCC3)c12 : True

EC50 under 200 nM? Item: Cc1nn(-c2ccc(F)cc2F)c2nc(C(=O)NS(C)(=O)=O)cc(-c3ccc(N4CCOCC4)cc3)c12
False

EC50 under 200 nM? Item: CNS(=O)(=O)NC(=O)c1cc(N2CCC(N3CCC(F)CC3)CC2)c2c(C3CCC3)nn(-c3ccc(F)cc3)c2n1
True

EC50 under 200 nM? Item: CC1(C)CC(c2nn(-c3ccccc3)c3nc(C(=O)NS(C)(=O)=O)cc(-c4ccc(N5CCC(C#N)CC5)nc4)c23)C1
False

EC50 under 200 nM? Item: COCCS(=O)(=O)NC(=O)c1cc(N2CCC(COC)CC2)c2c(C(C)C)nn(C3CCCCC3)c2n1
False

Ref: patent US10259810B2
